Tested on: CCRIS mutagenicity, Ames/micronucleus/aberration tests
method-summary: CCRIS mutagenicity studies
condition-details: Test System: MOUSE LYMPHOMA; Strain/Indicator: L5178Y (TK+/TK-); Metabolic Activation: RAT, LIVER, S-9, AROCLOR 1254; Method: SUSPENSION/PLATE
Activity calls are given as the source filed them. No rule for the calls is given here.
Outcomes: yes (1) for active, no (0) for inactive

* O=S(=O)(C(Cl)(Cl)Cl)C(Cl)(Cl)Cl | no (0)
* C[Si](C)(C)Cl | no (0)
* ClC1=C(Cl)[C@]2(Cl)[C@@H]3[C@H]4C[C@H]([C@@H]5O[C@H]45)[C@@H]3[C@@]1(Cl)C2(Cl)Cl | no (0)
* Nc1nc(Cl)cc(Cl)n1 | yes (1)
* C=C(Cl)CCl | yes (1)
* C=C[Si](C)(C)CCl | no (0)
* O=C1CCC(=O)N1Br | no (0)
* c1ccc2cnncc2c1 | yes (1)
* C=C1N(C)c2ccccc2C1(C)C | yes (1)
* Cl/C=C/C[N+]12CN3CN(CN(C3)C1)C2 | yes (1)
* O=c1cccccc1O | no (0)

====

Test system: CCRIS mutagenicity, Ames/micronucleus/aberration tests
method-summary: CCRIS mutagenicity studies
condition-details: Test System: AMES SALMONELLA TYPHIMURIUM; Strain/Indicator: TA1535; Metabolic Activation: NONE; Method: PREINCUBATION
The source made the active and inactive calls. How the calls were made is not given here.
Outcome codes: Yes for active, No for inactive

* CCCN(N=O)/C(N)=N/[N+](=O)[O-] | Yes
* CCNCC | No
* CCCCCCCCCCCCCCCCN | No

====

System: CCRIS mutagenicity, Ames/micronucleus/aberration tests
method-summary: CCRIS mutagenicity studies
condition-details: Test System: AMES SALMONELLA TYPHIMURIUM; Strain/Indicator: TA98; Metabolic Activation: RAT, LIVER, S-9, AROCLOR 1254; Method: STANDARD PLATE
Active and inactive are the calls of the source. How the calls were made is not given here.
Labels: active, inactive

- N[C@@H](Cc1ccccc1)C(=O)O: inactive
- CC(=O)Nc1cc2c(cc1Cl)-c1ccccc1C2: active
- C=C(Cl)CCl: inactive
- O=c1c(O)c(O)c1=O: inactive
- Cc1cc(O)c2c(c1)C(=O)C13C(=C2O)C(=O)C2C(O)C1C1C(O)C3C(=O)C3=C(O)c4c(O)cc(C)cc4C(=O)C321 (stereo not drawn): inactive
- O=C(CCl)NCO: inactive
- [N-]=[N+]=[N-]: inactive
- CS(=O)(=O)c1ccc(Cl)cc1: inactive

====

Tested on: CCRIS mutagenicity, Ames/micronucleus/aberration tests
method-summary: CCRIS mutagenicity studies
condition-details: Test System: AMES SALMONELLA TYPHIMURIUM; Strain/Indicator: TA100; Metabolic Activation: RAT, LIVER, S-9, AROCLOR 1254; Method: PREINCUBATION
Calls of active or inactive are those of the source. The rule behind the calls is not given here.
Labels: True = active, False = inactive

• O=C/C=C/C=C/C=O = False
• Cc1cnc2ccc3c(ncn3C)c2n1 = False
• C=CC(=O)OCC = False
• c1ccsc1 = False
• Oc1ccc(Cl)c(Cl)c1 = False
• Nc1c(Br)cc(Br)c2c1C(=O)c1ccccc1C2=O = False
• O=CC=O = True
• O=[N+]([O-])N(c1ccccn1)S(=O)(=O)c1ccccc1 = False
• CCCN(CCC)N=O = True
• Cc1cc(=O)oc2cc(O)ccc12 = False
• COP(=O)(OC)SC = False
• CC(O)c1ccccc1 (stereo not given) = False
• CC(=O)OCN(C)[N+](=O)[O-] = True
• Fc1cccc2ncccc12 = True
• CCC=O = False
• O=[N+]([O-])c1cc2c3c(ccc2c2ccccc12)[C@H](O)[C@@H](O)C=C3 = True
• CBr = True
• CCN(CC)S(=O)(=O)c1ccc(N)cc1 = False
• C=C(C=O)CC = True
• O=C(OCc1ccccc1[N+](=O)[O-])c1ccccc1 = False

Origin of values: PubChem BioAssay AID1259407
